The reported measurements were obtained from patent EP0091302A1.

Measured MIC values are reported for all entries that follow.
- Test system: Ps. aeruginosa 10662
- assay info: Antibacterial activity (MIC)
- Format: cell-based
- applied conditions: Pseudomonas aeruginosa
Field: numeric (µg/mL). Do not append units.

compound: CO[C@@]1(NC(=O)[C@@H](c2cc(C)c(OC(C)=O)c(OC(C)=O)c2)S(=O)(=O)O)C(=O)N2[C@@H](C(=O)O)C(C)(C)S[C@@H]21 [Example 7]
u: µg/mL
MIC: 16
//
compound: CO[C@@]1(NC(=O)[C@@H](c2cc(OC(C)=O)c(OC(C)=O)cc2C)S(=O)(=O)O)C(=O)N2[C@@H](C(=O)O)C(C)(C)S[C@@H]21 [Example 6vi]
u: µg/mL
MIC: 16

(Q) Find the measured MIC of CO[C@@]1(NC(=O)C(c2cc(O)c(O)c([N+](=O)[O-])c2)S(=O)(=O)O)C(=O)N2[C@@H](C(=O)O)C(C)(C)S[C@@H]21 (stereo partly drawn) [Example 2] with Ps. aeruginosa 10662 as test system.
(A) 5

(Q) Specify the recorded MIC for CO[C@@]1(NC(=O)C(c2cc(N)c(O)c(O)c2)S(=O)(=O)O)C(=O)N2[C@@H](C(=O)O)C(C)(C)S[C@@H]21 (stereo partly drawn) [Example 1] , system: Ps. aeruginosa 10662.
(A) 50

(Q) GET MIC where system = Ps. aeruginosa 10662 and item = CO[C@@]1(NC(=O)[C@@H](c2cc(OC(C)=O)c(OC(C)=O)c(Cl)c2Cl)S(=O)(=O)O)C(=O)N2[C@@H](C(=O)O)C(C)(C)S[C@@H]21 [Example 8]
(A) 2

(Q) Send back Ps. aeruginosa 10662 MIC of CO[C@@]1(NC(=O)[C@H](c2cc(OC(C)=O)c(OC(C)=O)cc2C)S(=O)(=O)O)C(=O)N2[C@@H](C(=O)O)C(C)(C)S[C@@H]21 [Example 6vii] only.
(A) 128

###

- Tested on: Ps. aeruginosa 10662
- assay info: Antibacterial activity (MIC)
- Assay type: cell-based
- applied conditions: Pseudomonas aeruginosa
property label: MIC
A complete answer gives the number followed by the unit.

Answered examples (2):
entry smiles: CO[C@@]1(NC(=O)[C@@H](c2cc(Cl)c(OC(C)=O)c(OC(C)=O)c2)S(=O)(=O)O)C(=O)N2[C@@H](C(=O)O)C(C)(C)S[C@@H]21
MIC: 0.5 µg/mL
--
entry smiles: CO[C@@]1(NC(=O)[C@@H](c2cc(OC(C)=O)c(OC(C)=O)cc2Cl)S(=O)(=O)O)C(=O)N2[C@@H](C(=O)O)C(C)(C)S[C@@H]21
MIC: 5 µg/mL

# input for lookup
(Q) Identify MIC associated with the molecule "CO[C@@]1(NC(=O)[C@@H](c2cc(O)c(O)c(Cl)c2)S(=O)(=O)O)C(=O)N2[C@@H](C(=O)O)C(C)(C)S[C@@H]21"
(A) 2.5 µg/mL

###

# log10 MIC measurements, system: E. coli ESS
Please be aware that the numbers have been log10-transformed from MIC in µg/mL.

molecule: CO[C@@]1(NC(=O)[C@@H](c2cc(OC(C)=O)c(OC(C)=O)c(Cl)c2Cl)S(=O)(=O)O)C(=O)N2[C@@H](C(=O)O)C(C)(C)S[C@@H]21
study system: E. coli ESS
experimental result: -0.60
//
molecule: CO[C@@]1(NC(=O)[C@@H](c2cc(O)c(O)c(Cl)c2)S(=O)(=O)O)C(=O)N2[C@@H](C(=O)O)C(C)(C)S[C@@H]21
study system: E. coli ESS
experimental result: -1.30
//
molecule: CO[C@@]1(NC(=O)[C@@H](c2cc(OC(C)=O)c(OC(C)=O)cc2C)S(=O)(=O)O)C(=O)N2[C@@H](C(=O)O)C(C)(C)S[C@@H]21
study system: E. coli ESS
experimental result: 0.60

(Q) Specify the recorded log10 MIC for CO[C@@]1(NC(=O)C(c2cc(O)c(O)c([N+](=O)[O-])c2)S(=O)(=O)O)C(=O)N2[C@@H](C(=O)O)C(C)(C)S[C@@H]21 (stereo partly drawn) , system: E. coli ESS.
(A) -0.70

(Q) Give E. coli ESS log10 MIC for the following molecule: CO[C@@]1(NC(=O)C(c2cc(N)c(O)c(O)c2)S(=O)(=O)O)C(=O)N2[C@@H](C(=O)O)C(C)(C)S[C@@H]21 (stereo partly drawn)
(A) 0.70

(Q) Would you please give the reported log10 MIC of "CO[C@@]1(NC(=O)[C@H](c2cc(OC(C)=O)c(OC(C)=O)cc2C)S(=O)(=O)O)C(=O)N2[C@@H](C(=O)O)C(C)(C)S[C@@H]21" with E. coli ESS?
(A) 1.51

(Q) Look up E. coli ESS data: log10 MIC of "CO[C@@]1(NC(=O)[C@@H](c2cc(C)c(OC(C)=O)c(OC(C)=O)c2)S(=O)(=O)O)C(=O)N2[C@@H](C(=O)O)C(C)(C)S[C@@H]21" , then report it.
(A) -0.30

(Q) Answer briefly: log10 MIC recorded on E. coli ESS for "CO[C@@]1(NC(=O)[C@@H](c2cc(OC(C)=O)c(OC(C)=O)cc2Cl)S(=O)(=O)O)C(=O)N2[C@@H](C(=O)O)C(C)(C)S[C@@H]21"
(A) -0.70

(Q) Recall the reported log10 MIC of "CO[C@@]1(NC(=O)[C@@H](c2cc(Cl)c(OC(C)=O)c(OC(C)=O)c2)S(=O)(=O)O)C(=O)N2[C@@H](C(=O)O)C(C)(C)S[C@@H]21" when tested on E. coli ESS.
(A) -1.30
